Reference source: ChEMBL document CHEMBL4251705

ΔTm, Bromodomain-containing protein 4 (Homo sapiens, UniProt O60885): measured values
# output: bare number, implied unit °C

Past entries and their recorded results:
- Cc1ccc(S(=O)(=O)Nc2cnc3c(c2)OC(C)(C)C(=O)N3)cc1: 1.1
- CC1(C)Oc2cc(NS(=O)(=O)c3ccccc3)ccc2NC1=O: 5.5
- CCCS(=O)(=O)Nc1ccc2c(c1)OC(C)(C)C(=O)N2: 3.9
- CC1(C)Oc2cc(NS(=O)(=O)c3ccc(F)cc3F)cnc2NC1=O: 2.3
- COc1ccc(Br)cc1S(=O)(=O)Nc1cc2c(cc1Cl)NC(=O)C(C)(C)O2: 4.2

The reported ΔTm value, Bromodomain-containing protein 4 (Homo sapiens, UniProt O60885), for "CC1(C)Oc2cc(NS(=O)(=O)c3ccc(F)cc3)cnc2NC1=O" reads 2.6

The reported ΔTm value, Bromodomain-containing protein 4 (Homo sapiens, UniProt O60885), for "CC1(C)Oc2cc(NS(=O)(=O)c3cccs3)cnc2NC1=O" reads 2.3

The reported ΔTm value, Bromodomain-containing protein 4 (Homo sapiens, UniProt O60885), for "COc1ccc(Br)cc1S(=O)(=O)Nc1cc2c(cc1N(C)C)NC(=O)C(C)(C)O2" reads 3.6

The reported ΔTm value, Bromodomain-containing protein 4 (Homo sapiens, UniProt O60885), for "COc1ccc(Br)cc1S(=O)(=O)Nc1ccc2c(c1)OC(C)(C)C(=O)N2" reads 4.5

The reported ΔTm value, Bromodomain-containing protein 4 (Homo sapiens, UniProt O60885), for "CC1(C)Oc2cc(NS(=O)(=O)c3cccc(Cl)c3F)ccc2NC1=O" reads 2.4
